Please respond with reported melting point for every item in the list.

Each molecule below has a reported value. Please supply its melting point.
1. CC(=O)c1cc(C[C@H](NC(=O)c2c(Cl)cccc2Cl)C(=O)O)ccc1-c1ccccc1
2. COc1ccc(-c2cc(=S)n(Cc3ccccc3)nc2-c2ccc(OC)cc2)cc1
3. COC1=CC(=O)N(CC(=O)OCc2ccccc2)C1

A)
109 to 111 °C
135 to 149 °C
129 to 130 °C

Give melting point for each listed item.
1. CC1(C)CC(c2ccccn2)c2cc(Cl)ccc2O1 (stereo not given)
2. CN(c1cc2c3c(c1)CCCC3CCC2)c1ncc(C(=O)O)cn1

A)
1. 124 to 125 °C
2. 255 to 256 °C
